// data source = patent US8378104B2

System: p-p38 in HCT-116 cells
Assay: Phospho-p38 Meso Scale ELISA assay, TNFα-stimulated HCT-116 cells
Assay type: cell-based
Details: Homo sapiens, read-out: mean HCT-116 p-p38 ELISA IC50 (Col. C)
Description: Detailed below are ELISA assays for pJNK and p38, and a TAK1 biochemical assay. […] In Table 1, Col. • 1. Plate HCT-116 cells at 25,000 per well in 100 uL in 96 well clear dishes in normal growth medium. Day 2: • 1. Aspirate medium and replace with 90 μl reduced serum growth medium (1% FCS), incubate for 2 hours at 37° C. • 2. Make drugs at 10× in reduced serum medium and add 10 uL per well. • 3. Incubate at 37° C. for 4 hrs. • 4. […] Read on Sector Imager. […] Read on Sector Imager. […]
pIC50: −log10 of the molar value.

smilesRecord: CC(=O)N1CCC(n2cc(-c3cnc(N)c4oc(-c5cccc(O)c5)cc34)cn2)CC1
pIC50: 6.00 to 7.00

smilesRecord: Nc1ncc(-c2cnn(C3CCNCC3)c2)c2cc(-c3csc4cnccc34)oc12
pIC50: 6.00 to 7.00

smilesRecord: CC(=O)N1CCC(n2cc(-c3cnc(N)c4oc(-c5ccc6c(c5)CCC(=O)N6)cc34)cn2)CC1
pIC50: 5.00 to 6.00

smilesRecord: CC(=O)N1CCC(n2cc(-c3cnc(N)c4oc(-c5ccc6c(c5)CCO6)cc34)cn2)CC1
pIC50: > 7.00

smilesRecord: Nc1ncc(-c2cnn(C3CCNCC3)c2)c2cc(-c3cccc4cnccc34)oc12
pIC50: 6.00 to 7.00

smilesRecord: CC(=O)N1CCC(n2cc(-c3cnc(N)c4oc(-c5ccc(O)c(Cl)c5)cc34)cn2)CC1
pIC50: 5.00 to 6.00

smilesRecord: Nc1ncc(-c2cnn(C3CNC3)c2)c2cc(-c3csc4cnccc34)oc12
pIC50: 6.00 to 7.00

smilesRecord: CC(=O)N1CCC(n2cc(-c3cnc(N)c4oc(-c5cccc6[nH]ncc56)cc34)cn2)CC1
pIC50: 6.00 to 7.00
